Water retention property test 1 Rate of reduction in moisture by entry:
test: Water retention property test 1; format: physicochemical; conditions: 80 wt % aqueous solution; 24 hours at 40° C. and 25% RH
Value expressed in %; do not type the unit.

Some solved entries appear below for comparison.
C[N+](C)(CCO)CC(O)C[N+](C)(C)CCO.[Cl-].[Cl-] 9.5
C[N+](C)(C)CCO.O=P([O-])(O)O 3.0
CC(C)(CO)CO 4.7

What value of Water retention property test 1 Rate of reduction in moisture has been reported for the following compound? NC(CO)(CO)CO.O=C(O)CC(O)(CC(=O)O)C(=O)O 5.1

====

Assay: Water retention property test 2 (hydrates)
Assay type: physicochemical
Conditions: hydrate (anhydrides: aqueous solution at mono- to trihydrate concentration); unsealed, 24 hours at 40° C. and 25% RH
Experimental: (2) Water retention property test 2 The water retention property of the hydrate of each compound was evaluated. […] A moisture rate after 24 hours was again measured (post-test moisture rate: B), followed by calculating a rate of reduction in moisture in a similar manner as above so as to evaluate the water retention property. […]
compounds and their reported Post-test moisture rate
All answers are understood in %, so give the number only.

compound	u	Post-test moisture rate
OCC(O)CO [Comparative example C11]	%	24.4
O=C(O)CO.OCCNCCO	%	16.1
CS(=O)(=O)O.NC(CO)(CO)CO	%	14.0
C[N+](C)(C)CCO.[Cl-]	%	10.7
F[B-](F)(F)F.[NH3+]C(CO)CO	%	15.9
NC(CO)CO.O=C(O)CCC(=O)O	%	13.9
CC(C)(N)CO.CC(O)C(=O)O	%	16.3
C[N+](C)(CCO)CC(O)CO.[Cl-] (stereo not drawn)	%	14.0
CC(O)C(=O)O.N (stereo not drawn)	%	13.7
CCCCn1cc[n+](C)c1.F[B-](F)(F)F [Comparative example C7]	%	3.9

Given the entry CC(O)C(=O)O.NCCO (stereo not drawn) , report its measured Post-test moisture rate. 10.5

Next compound: C[N+](C)(C)CCO.O=P([O-])(O)O 8.0

Try the compound CC(O)C(=O)[O-].CCC(CO)(CO)[N+](CC(O)CO)(CC(O)CO)CC(O)CO (stereo not drawn) 7.5

====

The reader will find reported Rate of reduction in moisture values listed item by item below.
test: Water retention property test 2 (hydrates); type: physicochemical; conditions: hydrate (anhydrides: aqueous solution at mono- to trihydrate concentration); unsealed, 24 hours at 40° C. and 25% RH
Output spec: scalar in %, unitless text.

compound	recorded result
CCCCn1cc[n+](C)c1.F[B-](F)(F)F [Comparative example C8]	48.6

Now examine the next entry.
So what's the measured Rate of reduction in moisture for this one? CCCC[N+](CCCC)(CCCC)CCCC.[Br-] [Comparative example C4] 8.1

====

In this section we review reported Post-test moisture rate values for a set of compounds.
experiment: Water retention property test 2 (hydrates); type: physicochemical; conditions: hydrate (anhydrides: aqueous solution at mono- to trihydrate concentration); unsealed, 24 hours at 40° C. and 25% RH
Give me the value, and tack the unit on after it.

compound	Post-test moisture rate
CC(=O)O.NC(CO)CO	18.8%
CC(=O)[O-].C[N+](C)(C)CCO	9.5%
CC(O)C(=O)O.NCC(O)C(O)C(O)C(O)CO (centres unmarked)	11.4%
CC(N)(CO)CO.CC(O)C(=O)O	15.2%
CC(C)(N)CO.O=C1OC(C(O)CO)C(O)=C1O (centres unmarked)	11.7%

Item C[N+](C)(C)CC(O)CC(=O)O.O=C1O[C@H]([C@@H](O)CO)C([O-])=C1O has what recorded Post-test moisture rate? 9.6%

Then CC(O)C(=O)O.CCC(N)(CO)CO ? 14.3%

Check CS(=O)(=O)O.NC(CO)CO too. 16.0%

====

assay: Water retention property test 2 (hydrates); assay type: physicochemical; conditions: hydrate (anhydrides: aqueous solution at mono- to trihydrate concentration); unsealed, 24 hours at 40° C. and 25% RH
Hi! Could you tag entries with Rate of reduction in moisture below 2% as Criterion met, and those at or above as Criterion not met? Much appreciated.

Reference set, count: 3
molecule	answer label
CCC(N)(CO)CO.Cl [Working example C80]	Criterion not met
C[N+](C)(C)CC(O)CC(=O)O.O=C1O[C@H]([C@@H](O)CO)C([O-])=C1O [Working example C111]	Criterion met
CC(O)C(=O)O.NC(CO)CO (centres unmarked) [Working example C69]	Criterion not met

# evaluate next
Please state whether Rate of reduction in moisture is below 2% for CCC(N)(CO)CO.CS(=O)(=O)O [Working example C78] Criterion met

====

assay: Water retention property test 2 (hydrates); format: physicochemical; conditions: hydrate (anhydrides: aqueous solution at mono- to trihydrate concentration); unsealed, 24 hours at 40° C. and 25% RH
Post-test moisture rate strictly less than 10% = rule met. Otherwise rule not met.

Solved cases (3 shown):
compound	answer label
CC(N)(CO)CO.O=C1O[C@H]([C@@H](O)CO)C(O)=C1O [Working example C116]	rule not met
NC(CO)CO.O=C(O)CC(O)(CC(=O)O)C(=O)O [Working example C71]	rule not met
OCC(O)CO [Comparative example C12]	rule not met

Take the compound CC(O)C(=O)O.OCCN(CCO)CCO [Working example C66] and say whether its Post-test moisture rate is less than 10%. rule not met

What would you report for CCCC[N+](CCCC)(CCCC)CCCC.[Br-] [Comparative example C4] ? rule met

And for OCC(O)CO [Comparative example C10] ? rule not met
